Data origin: paper PMC11706420

Test: Cytosolic binding (fucyt), human liver cytosol with AO inhibitor
Conditions: 1 mg/mL; n=3, mean (CV%)
Documented fucyt, Human Liver Cytosol with 50 uM Hydralazine across a set of compounds
Result type: fucyt, Human Liver Cytosol with 50 uM Hydralazine

# Compound, Result value
data = [
    ("CNC(=O)c1ccc(-c2cnc3ncc(Cc4ccc5ncccc5c4)n3n2)cc1F", "0.831 (2.65)"),
    ("N=C(N)NC(=O)c1cnn(-c2cccc3ncccc23)c1C1CC1 [Zoniporide]", "1 (0.40)"),
    ("CCN(C(C)=O)c1cccc(-c2ccnc3c(C#N)cnn23)c1", "1 (1.10)"),
    ("CC[C@H](Nc1ncnc2[nH]cnc12)c1nc2cccc(F)c2c(=O)n1-c1ccccc1", "0.924 (3.35)"),
    ("COc1cc2nccc(Oc3ccc(NC(=O)NC4CC4)c(Cl)c3)c2cc1C(N)=O", "0.718 (1.95)"),
    ("O=C1Cc2cc(CCN3CCN(c4nsc5ccccc45)CC3)c(Cl)cc2N1", "0.356 (2.53)"),
]

----------
Documented microsomal CLint at 1 µM across a set of compounds
Experiment: Microsomal clearance incubations (substrate depletion)
Settings: both, human, liver microsomes

# Compound, microsomal CLint at 1 µM [µL/min/mg]
rows = [
    ("N=C(N)NC(=O)c1cnn(-c2cccc3ncccc23)c1C1CC1 [Zoniporide]", 5.19),
    ("O=C1Cc2cc(CCN3CCN(c4nsc5ccccc45)CC3)c(Cl)cc2N1", 71.9),
]

----------
Documented Cmax,u across a set of compounds
Assay: Inhibitor plasma exposure and plasma binding (literature)
Format: in vivo, human
Settings: Figure 5

# Molecule smiles, Cmax,u [nM]
measured = [
    ("O=C(c1ccc(OCCN2CCCCC2)cc1)c1c(-c2ccc(O)cc2)sc2cc(O)ccc12", 0.14),
    ("C#Cc1cccc(Nc2ncnc3cc(OCCOC)c(OCCOC)cc23)c1", 420),
    ("C#Cc1cccc(Nc2ncnc3cc4c(cc23)OCCOCCOCCO4)c1", 570),
    ("CN/C(=N/CCSCc1nc[nH]c1C)NC#N", 5000),
    ("C#C[C@]1(O)CC[C@H]2[C@@H]3CCc4cc(O)ccc4[C@H]3CC[C@@]21C", 0.0091),
]

----------
Test: Cytosolic binding (fucyt), dog liver cytosol
Conditions: 1 mg/mL; n=3, mean (CV%)
Result type: fucyt, Dog Liver Cytosol with 50 uM Hydralazine

# Compound, Result value
records = [
    ("O=C1Cc2cc(CCN3CCN(c4nsc5ccccc45)CC3)c(Cl)cc2N1", "0.288 (3.81)"),
    ("N=C(N)NC(=O)c1cnn(-c2cccc3ncccc23)c1C1CC1 [Zoniporide]", "0.847 (1.57)"),
    ("COc1cc2nccc(Oc3ccc(NC(=O)NC4CC4)c(Cl)c3)c2cc1C(N)=O", "0.721 (7.47)"),
    ("CNC(=O)c1ccc(-c2cnc3ncc(Cc4ccc5ncccc5c4)n3n2)cc1F", "0.718 (2.47)"),
    ("CC[C@H](Nc1ncnc2[nH]cnc12)c1nc2cccc(F)c2c(=O)n1-c1ccccc1", "0.814 (5.11)"),
    ("CCN(C(C)=O)c1cccc(-c2ccnc3c(C#N)cnn23)c1", "0.84 (3.63)"),
]

----------
Documented Papp A→B at 120 min, 5 µM across a set of compounds
Test: In vitro permeability (Papp), transwell transport
Conditions: dog, MDCK

# Compound, Papp A→B at 120 min, 5 µM / ×10⁻⁶ cm/s
data = [
    ("CNC(=O)c1ccc(-c2cnc3ncc(Cc4ccc5ncccc5c4)n3n2)cc1F [Capmatinib]", 32),
    ("COc1cc2nccc(Oc3ccc(NC(=O)NC4CC4)c(Cl)c3)c2cc1C(N)=O [Lenvatinib]", 29.8),
    ("O=C1Cc2cc(CCN3CCN(c4nsc5ccccc45)CC3)c(Cl)cc2N1 [Ziprasidone]", 3.15),
    ("N=C(N)NC(=O)c1cnn(-c2cccc3ncccc23)c1C1CC1 [Zoniporide]", 1.72),
    ("CC[C@H](Nc1ncnc2[nH]cnc12)c1nc2cccc(F)c2c(=O)n1-c1ccccc1 [Idelalisib]", 16.2),
    ("CCN(C(C)=O)c1cccc(-c2ccnc3c(C#N)cnn23)c1 [Zaleplon]", 38.9),
]

----------
Target: aldehyde oxidase (AO) (Homo sapiens, UniProt Q06278)
Sequence (Q06278 whole entry): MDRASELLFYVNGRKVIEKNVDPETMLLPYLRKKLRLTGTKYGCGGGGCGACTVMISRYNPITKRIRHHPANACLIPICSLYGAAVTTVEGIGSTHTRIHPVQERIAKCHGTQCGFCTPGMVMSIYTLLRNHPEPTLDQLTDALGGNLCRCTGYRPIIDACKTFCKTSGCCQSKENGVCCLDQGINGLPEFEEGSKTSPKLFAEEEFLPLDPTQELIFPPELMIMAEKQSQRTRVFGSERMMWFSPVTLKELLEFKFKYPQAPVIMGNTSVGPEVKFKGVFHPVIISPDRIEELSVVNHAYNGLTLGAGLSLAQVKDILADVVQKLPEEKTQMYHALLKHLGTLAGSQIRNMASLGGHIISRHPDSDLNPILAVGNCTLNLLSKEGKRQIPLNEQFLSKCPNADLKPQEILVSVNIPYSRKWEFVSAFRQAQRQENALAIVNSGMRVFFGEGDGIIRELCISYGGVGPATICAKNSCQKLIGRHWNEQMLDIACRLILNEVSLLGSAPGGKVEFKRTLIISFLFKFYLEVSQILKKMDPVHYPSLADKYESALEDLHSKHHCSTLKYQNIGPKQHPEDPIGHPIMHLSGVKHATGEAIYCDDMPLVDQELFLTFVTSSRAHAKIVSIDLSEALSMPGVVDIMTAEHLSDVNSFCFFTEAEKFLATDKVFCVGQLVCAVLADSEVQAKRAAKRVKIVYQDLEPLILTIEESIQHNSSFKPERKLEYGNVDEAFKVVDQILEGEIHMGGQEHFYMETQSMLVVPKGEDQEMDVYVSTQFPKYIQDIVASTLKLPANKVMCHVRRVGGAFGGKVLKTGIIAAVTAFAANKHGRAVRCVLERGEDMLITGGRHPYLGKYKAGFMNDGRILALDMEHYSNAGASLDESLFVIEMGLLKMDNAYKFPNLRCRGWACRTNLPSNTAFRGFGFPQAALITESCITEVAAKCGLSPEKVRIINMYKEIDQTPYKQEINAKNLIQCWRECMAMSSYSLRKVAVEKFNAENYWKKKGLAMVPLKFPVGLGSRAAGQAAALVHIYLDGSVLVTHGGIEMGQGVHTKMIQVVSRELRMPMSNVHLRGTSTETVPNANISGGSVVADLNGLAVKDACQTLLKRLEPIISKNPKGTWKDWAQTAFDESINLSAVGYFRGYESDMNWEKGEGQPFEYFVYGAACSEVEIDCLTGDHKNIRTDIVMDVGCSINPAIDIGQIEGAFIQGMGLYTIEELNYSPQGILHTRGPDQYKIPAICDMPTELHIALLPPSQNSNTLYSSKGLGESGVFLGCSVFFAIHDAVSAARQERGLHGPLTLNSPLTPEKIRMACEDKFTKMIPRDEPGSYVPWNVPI
Experiment: In vitro AO inhibition (literature)
Documented IC50 across a set of compounds

# Compound, IC50
data = [
    ("CCC(C)n1ncn(-c2ccc(N3CCN(c4ccc(OCC5COC(Cn6cncn6)(c6ccc(Cl)cc6Cl)O5)cc4)CC3)cc2)c1=O (centres unmarked) [Itraconazole]", "> 2800 nM"),
    ("CC(=O)N1CCN(c2ccc(OCC3COC(Cn4ccnc4)(c4ccc(Cl)cc4Cl)O3)cc2)CC1 (centres unmarked) [Ketoconazole]", "1200 to 2100 nM"),
]

----------
Documented Papp B→A at 120 min, 5 µM across a set of molecules
Assay: In vitro permeability (Papp), transwell transport
Conditions: dog, MDCK

# Molecule, Papp B→A at 120 min, 5 µM / ×10⁻⁶ cm/s
measured = [
    ("COc1cc2nccc(Oc3ccc(NC(=O)NC4CC4)c(Cl)c3)c2cc1C(N)=O", 21.3),
    ("N=C(N)NC(=O)c1cnn(-c2cccc3ncccc23)c1C1CC1 [Zoniporide]", 1.22),
    ("CC[C@H](Nc1ncnc2[nH]cnc12)c1nc2cccc(F)c2c(=O)n1-c1ccccc1", 14.7),
    ("CNC(=O)c1ccc(-c2cnc3ncc(Cc4ccc5ncccc5c4)n3n2)cc1F", 29.5),
    ("CCN(C(C)=O)c1cccc(-c2ccnc3c(C#N)cnn23)c1", 32.5),
    ("O=C1Cc2cc(CCN3CCN(c4nsc5ccccc45)CC3)c(Cl)cc2N1", 0.843),
]

----------
Experiment: in vitro
Settings: both, human, microsomes

# Molecule smiles, microsomal CLint at 1 µM
rows = [
    ("COc1cc2nccc(Oc3ccc(NC(=O)NC4CC4)c(Cl)c3)c2cc1C(N)=O", "7.43 µL/min/mg"),
    ("CNC(=O)c1ccc(-c2cnc3ncc(Cc4ccc5ncccc5c4)n3n2)cc1F", "30.4 µL/min/mg"),
]

----------
Experiment: Microsomal binding (fumic)
Settings: corrected with Hallifax&Houston algorithm
Result type: Predicted fumic for 1 mg/mL

# Compound, Result value
data = [
    ("CNC(=O)c1ccc(-c2cnc3ncc(Cc4ccc5ncccc5c4)n3n2)cc1F [Capmatinib]", 0.549),
    ("CCN(C(C)=O)c1cccc(-c2ccnc3c(C#N)cnn23)c1 [Zaleplon]", 0.932),
    ("O=C1Cc2cc(CCN3CCN(c4nsc5ccccc45)CC3)c(Cl)cc2N1 [Ziprasidone]", 0.063),
    ("N=C(N)NC(=O)c1cnn(-c2cccc3ncccc23)c1C1CC1 [Zoniporide]", 0.476),
    ("COc1cc2nccc(Oc3ccc(NC(=O)NC4CC4)c(Cl)c3)c2cc1C(N)=O [Lenvatinib]", 0.463),
]

----------
Experiment: Cytosolic binding (fucyt), human liver cytosol with AO inhibitor
Settings: 1 mg/mL; n=3, mean (CV%)
Result type: fucyt, Human Liver Cytosol with 5 uM Raloxifene

# Compound, Result value
rows = [
    ("N=C(N)NC(=O)c1cnn(-c2cccc3ncccc23)c1C1CC1 [Zoniporide]", "0.954 (5.40)"),
    ("CCN(C(C)=O)c1cccc(-c2ccnc3c(C#N)cnn23)c1", "0.846 (1.87)"),
    ("CC[C@H](Nc1ncnc2[nH]cnc12)c1nc2cccc(F)c2c(=O)n1-c1ccccc1", "0.787 (5.70)"),
    ("CNC(=O)c1ccc(-c2cnc3ncc(Cc4ccc5ncccc5c4)n3n2)cc1F", "0.777 (8.48)"),
    ("O=C1Cc2cc(CCN3CCN(c4nsc5ccccc45)CC3)c(Cl)cc2N1", "0.337 (4.82)"),
    ("COc1cc2nccc(Oc3ccc(NC(=O)NC4CC4)c(Cl)c3)c2cc1C(N)=O", "0.678 (3.49)"),
]

----------
Documented % Stability in plasma across a set of molecules
Assay: Plasma protein binding (fup), rapid equilibrium dialysis
Assay type: in vitro ADME, human
Settings: male, human, plasma, 20 h, 1 µM

# Molecule, Units text, % Stability in plasma
records = [
    ("O=C1Cc2cc(CCN3CCN(c4nsc5ccccc45)CC3)c(Cl)cc2N1", "%", 96.2),
    ("COc1cc2nccc(Oc3ccc(NC(=O)NC4CC4)c(Cl)c3)c2cc1C(N)=O", "%", 108),
    ("CC(C)NCC(O)COc1cccc2ccccc12 (centres unmarked)", "%", 94.8),
    ("N=C(N)NC(=O)c1cnn(-c2cccc3ncccc23)c1C1CC1 [Zoniporide]", "%", 105),
    ("CNC(=O)c1ccc(-c2cnc3ncc(Cc4ccc5ncccc5c4)n3n2)cc1F", "%", 78.8),
]

----------
Assay: In vitro permeability (Papp), transwell transport
Conditions: dog, MDCK
Documented efflux ratio at 120 min, 5 µM across a set of compounds
Result type: efflux ratio at 120 min, 5 µM

# Compound, Result value
data = [
    ("O=C1Cc2cc(CCN3CCN(c4nsc5ccccc45)CC3)c(Cl)cc2N1 [Ziprasidone]", 0.268),
    ("CNC(=O)c1ccc(-c2cnc3ncc(Cc4ccc5ncccc5c4)n3n2)cc1F [Capmatinib]", 0.921),
]
